# Test system: RPMI-8226 leukemia
# Test protocol: NCI-60 one-dose screen, 48 h (100 = growth as untreated, 0 = no growth, -100 = all killed)
# Reported conditions: 10 µM unless noted
The panel holds about 83,000 compounds, 20% with a hit somewhere; the sample as a whole holds those more often.
Each item that follows carries a reported growth.
Readout type: growth (%)

molecule=COc1cc(/C=N/Nc2ccc(Br)cc2)cc(OC)c1OC tested_on="RPMI-8226 leukemia" unit_abbrev=% recorded_value=58.4
molecule=C=C1C(=O)O[C@H]2[C@H]1CC/C(Cn1cc(CCC)nn1)=C\CC[C@@]1(C)O[C@@H]21 tested_on="RPMI-8226 leukemia" unit_abbrev=% recorded_value=26.9
molecule=CCc1ccc(CCC(=O)Nc2ncc(Cc3cc(Cl)ccc3Cl)s2)o1 tested_on="RPMI-8226 leukemia" unit_abbrev=% recorded_value=12.3
molecule=O=C(Cc1cccc(OC(F)(F)F)c1)Nc1ccc(CCCCc2nnc(NC(=O)Cc3ccccn3)s2)nn1 tested_on="RPMI-8226 leukemia" unit_abbrev=% recorded_value=6.13
molecule=CC/C(Cc1ccccc1)=C(\c1ccc(OCCCN(C)C)cc1)c1ccc(OC(=O)NCc2ccccc2)cc1 tested_on="RPMI-8226 leukemia" unit_abbrev=% recorded_value=60.4
molecule=COc1ccc(/C=C/c2ccc3ccccc3n2)c(OC)c1 tested_on="RPMI-8226 leukemia" unit_abbrev=% recorded_value=74.7
molecule=Cc1cccc[n+]1C1c2ccccc2-c2ccccc21 tested_on="RPMI-8226 leukemia" unit_abbrev=% recorded_value=70.7
molecule="CCN1C(=O)N(CC)C2C1NN=c1s/c(=C\\c3cnc(C)n3C)c(=O)n12 (centres undefined)" tested_on="RPMI-8226 leukemia" unit_abbrev=% recorded_value=20.1
molecule=C=CN(C(=O)N1CCN(c2cc3c(cc2F)c(=O)c(C(=O)O)cn3C2CC2)CC1)c1nc(-c2ccc(OC)cc2)cs1 tested_on="RPMI-8226 leukemia" unit_abbrev=% recorded_value=-6.11
molecule=COc1ccccc1C(=O)Nc1cccc(NC(=O)c2ccoc2C)c1 tested_on="RPMI-8226 leukemia" unit_abbrev=% recorded_value=20.7
molecule=COc1ccc(C(=O)Cn2c(C(=O)c3ccc(Cl)cc3)nc3ccccc32)cc1 tested_on="RPMI-8226 leukemia" unit_abbrev=% recorded_value=13
molecule=O=C(Cc1ccc(/C=C/C(=O)c2ncc[nH]2)cc1)Nc1cc(C(F)(F)F)cc(C(F)(F)F)c1 tested_on="RPMI-8226 leukemia" unit_abbrev=% recorded_value=-18
molecule="CCO/C=N/C1=C(C#N)C(c2ccc(F)cc2)c2sc3c(F)cccc3c2O1 (centres undefined)" tested_on="RPMI-8226 leukemia" unit_abbrev=% recorded_value=41.9
molecule=COc1ccc2cc(-c3ccnc4c(N=Nc5ccc(Cl)cc5)c(N)nn34)ccc2c1 tested_on="RPMI-8226 leukemia" unit_abbrev=% recorded_value=94.9
molecule=CCOC(=O)c1cc(C(=O)c2cc(OC)c(OC)c(OC)c2)n2ccccc12 tested_on="RPMI-8226 leukemia" unit_abbrev=% recorded_value=23.2
molecule=CCN1C2CCC1/C(=C\c1ccc(F)cc1)C(=O)/C2=C/c1ccc(F)cc1 tested_on="RPMI-8226 leukemia" unit_abbrev=% recorded_value=18.5
molecule=COc1cc(OC)c(/C=C/C(=O)c2c(O)cc(OC)c(C3CCN(C)CC3)c2OC)c(OC)c1 tested_on="RPMI-8226 leukemia" unit_abbrev=% recorded_value=-45.3
molecule="Nc1ncnc2c1N=C(c1ccc3c(c1)OCO3)CC(c1cccc(Nc3ccnc4cc(C(F)(F)F)ccc34)c1)N2 (centres undefined)" tested_on="RPMI-8226 leukemia" unit_abbrev=% recorded_value=5.05
molecule=COc1cc2c(cc1OCCCCN1CCN(C(=S)SCCC(C#N)(c3ccccc3)c3ccccc3)CC1)N=C[C@@H]1CCCN1C2=O tested_on="RPMI-8226 leukemia" unit_abbrev=% recorded_value=-18

---

# Tested on: SNB-75 CNS
# Test protocol: NCI-60 one-dose screen, 48 h (100 = growth as untreated, 0 = no growth, -100 = all killed)
# Reported conditions: 10 µM unless noted
Compounds without any hit were thinned out: in the full panel of roughly 83,000, 20% have a hit.
Lab note: anything with growth at or over 70% counts as 1 (yes); the rest go in 0 (no).

compound=Cc1ccc(C(=O)Nc2cccc(C#Cc3cccc4[nH]nc(N)c34)c2)cc1C(F)(F)F tested_on="SNB-75 CNS" qualitative_label="1 (yes)"
compound=O=S(=O)(Nc1cc(Sc2cccc3cccnc23)c(O)c2ccccc12)c1ccccc1 tested_on="SNB-75 CNS" qualitative_label="0 (no)"
compound="CCCn1nc(C(=O)N(C)Cc2ccccc2)c2c1CCC(N1CCc3ccccc31)C2 (centres undefined)" tested_on="SNB-75 CNS" qualitative_label="1 (yes)"
compound=CC1(C)OB(O)c2cc(-c3nc4ccc5[nH]ncc5c4c4c3CCCC4)ccc21 tested_on="SNB-75 CNS" qualitative_label="1 (yes)"
compound=Oc1ccc(/C=C/c2ccc(O)cc2)cc1 tested_on="SNB-75 CNS" qualitative_label="0 (no)"
compound=C=C1C(=O)O[C@H]2[C@H]1CC/C(COC(=O)/C=C\C(=O)NCc1ccc(Cn3c(=O)sn(CCCl)c3=O)cc1)=C\CC[C@@]1(C)O[C@@H]21 tested_on="SNB-75 CNS" qualitative_label="1 (yes)"
compound=C=C1CC[C@@H]2C(C)(C)[C@@H](O)CC[C@@]2(C)[C@@H]1COc1ccc2ccc(=O)oc2c1 tested_on="SNB-75 CNS" qualitative_label="1 (yes)"
compound=CC(C)(C)c1cc(Cl)c(O)c(CNCCO)c1 tested_on="SNB-75 CNS" qualitative_label="1 (yes)"
compound=CN(CCC(=O)c1ccccc1)CCC(=O)c1ccccc1 tested_on="SNB-75 CNS" qualitative_label="1 (yes)"
compound=CCOc1c(OC)cc2c(c1O)C(=O)N[C@@H]1[C@@H](O)[C@@H](O)[C@H](O)C[C@@H]21 tested_on="SNB-75 CNS" qualitative_label="1 (yes)"
compound=CO[C@H]1CC(=O)n2c3ccccc3c3c4c(c5c6ccccc6n1c5c32)C(=O)NC4=O tested_on="SNB-75 CNS" qualitative_label="0 (no)"
compound=O=C(/C=C/c1ccc(Cl)cc1)c1cccc(OCCCOc2cccc(C(=O)/C=C/c3ccc(Cl)cc3)c2)c1 tested_on="SNB-75 CNS" qualitative_label="1 (yes)"
compound=O=C(N/N=C\c1cccc([N+](=O)[O-])c1)N/N=C/c1cccc([N+](=O)[O-])c1 tested_on="SNB-75 CNS" qualitative_label="1 (yes)"
compound="CCN1C(=O)N(CC)C2C1NC(=S)N2/N=C/c1ccc(C(F)(F)F)cc1 (centres undefined)" tested_on="SNB-75 CNS" qualitative_label="0 (no)"
compound=O=C1Nc2ccccc2/C1=C/c1cccn1C(=O)c1ccc(Cl)s1 tested_on="SNB-75 CNS" qualitative_label="0 (no)"
compound=CC1=C2[C@@H](CC1)[C@]1(C)O[C@@](C3CCCCC3)(C[C@H]1OC(=O)CO)[C@H]2OC(=O)/C=C/c1ccccc1 tested_on="SNB-75 CNS" qualitative_label="1 (yes)"

---

# Tested on: OVCAR-4 ovarian
# Test protocol: NCI-60 one-dose screen, 48 h
# Reported conditions: 10 µM unless noted
Compounds without any hit were thinned out: in the full panel of roughly 83,000, 20% have a hit. Active and inactive are the calls of the source. How the source made its calls: active means growth percent below 10; inactive means the rest.
Outcome codes: active, inactive

compound=O=C1/C(=C/c2ccccn2)NC(=S)N1c1ccccc1Cl qualitative_label=inactive
compound=CN(C)c1ccc(/C=C(\C#N)c2cc3ccccc3[nH]2)cc1 qualitative_label=inactive
compound=COc1ccc(C(=O)N2c3ccccc3Sc3ccccc32)c(C(F)(F)F)c1 qualitative_label=inactive
compound=Cn1c(=O)c2[nH]c(SCC(=O)Nc3ccc(C(=O)/C=C/c4ccccc4Cl)cc3)nc2n(C)c1=O qualitative_label=inactive
compound=COc1cccc(Nc2ncnc3cc(NC(=O)CCl)ccc23)c1 qualitative_label=active
compound="CO[C@H](C(=O)[C@@H](O)[C@@H](C)O)[C@@H]1Cc2cc3cc(O[C@H]4C[C@@H](O[C@H]5C[C@@H](O)[C@H](O)C(C)O5)[C@H](O)C(C)(O)O4)cc(O)c3c(O)c2C(=O)[C@H]1O[C@H]1C[C@@H](O[C@H]2C[C@@H](O[C@H]3C[C@@H](OC)[C@H](O)C(C)O3)[C@@H](O)C(C)O2)[C@H](O)C(C)O1 (stereo partly drawn)" qualitative_label=inactive
compound=Nc1c(C(=O)Nc2cccc(Cl)c2)sc2nc3c(cc12)CCCC3 qualitative_label=inactive
compound=O=C(NNc1cnccn1)c1nc2cc(F)ccc2n2cccc12 qualitative_label=active

---

# System: UO-31 renal
# Test protocol: NCI-60 one-dose screen, 48 h (100 = growth as untreated, 0 = no growth, -100 = all killed)
# Reported conditions: 10 µM unless noted
Compounds without any hit were thinned out: in the full panel of roughly 83,000, 20% have a hit.
Each item that follows carries a reported growth.
Readout type: growth (%)

molecule="N=c1c(S(=O)(=O)c2ccccc2)cc2c(=O)n3ccccc3nc2n1CC1CCCO1 (stereo not given)" recorded_value=56.4
molecule=CCc1ccc(CCC(=O)Nc2ncc(Cc3ccccc3)s2)o1 recorded_value=40.3
molecule=NC(=O)c1cnc(Nc2cccc(N)c2)nc1NCCCNC(=O)C1CCC1 recorded_value=27.8
molecule="N#CC1CCc2c(c(-c3ccc4nc(N)sc4c3)nc3ccc4[nH]ncc4c23)C1 (stereo not given)" recorded_value=31.2
molecule=CCCCNc1nnc2n(Cc3ccccc3)c(=O)c3c4c(sc3n12)CCCC4 recorded_value=34.2
